As shown below, each of these molecules has a reported pEC50 value.
- Tested on: phospho-ERK in melanoma derived WM-266-4 cells
- RUN_DESCRIPTION: Mechanistic cellular assay for Raf kinase activity (phospho-ERK, Bio-Plex)
- Format: cell-based
- EXPERIMENTAL_CONTEXT: Homo sapiens, treated 1-2 hr at 37° C., serum free medium, read-out: pERK EC50
pEC50: −log10 of the molar value.

Past entries and their recorded results:
(Q) Observed pEC50 on phospho-ERK in melanoma derived WM-266-4 cells for Cc1nc2cnc(C(=O)NC(C)c3ncc(Nc4ccc(C(F)(F)F)cc4)s3)cn2c1N (stereo not shown) , please.
(A) 6.00 to 7.00

(Q) Report pEC50 for CC(NC(=O)c1cc2c(cn1)ncn2CCN)c1cnc(Nc2ccc(C(F)(F)F)cc2)s1 (stereo not shown) tested on phospho-ERK in melanoma derived WM-266-4 cells.
(A) 6.00 to 7.00

(Q) What pEC50 appears in the records for this molecule with phospho-ERK in melanoma derived WM-266-4 cells? CCN1CC[C@@H](n2cnc3cnc(C(=O)N[C@H](C)c4cnc(Nc5ccc(C(F)(F)F)cc5)s4)cc32)C1
(A) ≥ 7.00

(Q) Param readout= pEC50; system= phospho-ERK in melanoma derived WM-266-4 cells; entry= CC(NC(=O)c1cc2c(cn1)ncn2CC(C)(C)C)c1cnc(Nc2ccc(C(F)(F)F)cc2)s1 (stereo not shown) ; returns value.
(A) 6.00 to 7.00

(Q) Missing value: pEC50, phospho-ERK in melanoma derived WM-266-4 cells, entry CCn1cnc2cnc(C(=O)NC(C)c3cnc(Nc4ccc(C(F)(F)F)cc4)s3)nc21 (stereo not shown) . Fill in?
(A) 6.00 to 7.00

---
(Q) Record CC(NC(=O)c1cc2c(cn1)ncn2CC(=O)O)c1cnc(Nc2ccc(C(F)(F)F)cc2)s1 (stereo not shown) : what is its pEC50 with phospho-ERK in melanoma derived WM-266-4 cells?
(A) 5.00 to 6.00

(Q) Form field - read-out: pEC50; system: phospho-ERK in melanoma derived WM-266-4 cells; submitted item: C[C@@H](NC(=O)c1cc2c(cn1)ncn2CCS(C)(=O)=O)c1cnc(Nc2ccc(C(F)(F)F)cc2)cn1
(A) 6.00 to 7.00
